assayDetails: chemical genetic growth profiling, strain panel (AID 1159580);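 note: tested at 20 µM; growth read once vehicle control cultures reached saturation at 30 °C; 1 = growth at the plate median or of vehicle wells; lower values mean less growth of the strain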
conditionsUsed: S. cerevisiae deletion strains, growth OD, locus YHR129C, strain ARP1, active compounds read low
The campaign covered roughly 5,500 compounds. About 2,000 (36%) were called active. Roughly 18% stayed inconclusive and do not appear here. Some of the results follow.
A collection of molecules and their measured normalized growth

- molecule: "CCOP(=S)(OCC)Oc1nc(Cl)c(Cl)cc1Cl"
  normalized growth: 0.995
- molecule: "Cc1ccc(-c2cc(C(F)(F)F)nn2-c2ccc(S(N)(=O)=O)cc2)cc1"
  normalized growth: 1
- molecule: "CCCCCCCCCCCC[C@H](C(=O)O)[C@@H](C)C(=O)O"
  normalized growth: 0.989
- molecule: "CC1(C)CC[C@@]2(C(=O)O)C(C1)C1=CCC3[C@@]4(C)CC[C@H](O)C(C)(C)C4CC[C@@]3(C)[C@]1(C)C[C@@H]2O (stereo partly drawn)"
  normalized growth: 1.04
- molecule: "CC(C)=CCCC1(C)C=Cc2c(O)c3c(c(CC=C(C)C)c2O1)OC12C(CC4CC1C(C)(C)OC2(C/C=C(/C)C(=O)O)C4O)C3=O (stereo not drawn)"
  normalized growth: 1.02
- molecule: "C[C@]12CCC(=O)C=C1CCC1C2[C@@H](O)C[C@@]2(C)C1CC[C@]2(O)C(=O)CO (stereo partly drawn)"
  normalized growth: 1.02
- molecule: "CC(C)CC(N(C)C)C1(c2ccc(Cl)cc2)CCC1 (stereo not drawn)"
  normalized growth: 1
- molecule: "CC(C)=CCCC1(C)C=Cc2c(O)c3c(c(CC=C(C)C)c2O1)OC12C(=CCCC1C(C)(C)O[C@@]2(C/C=C(\\C)C(=O)O)C(=O)O)C3=O (stereo partly drawn)"
  normalized growth: 0.808
- molecule: "C/C=C(/C)C(=O)OC1CCC2(C)C3CCC4C5(O)CC(O)C6(O)C(CN7CC(C)CCC7C6(C)O)C5(O)CC42OC13O (stereo not drawn)"
  normalized growth: 0.955
- molecule: "Nc1c2ccccc2nc2ccccc12 (tested in a mixture with another compound)"
  normalized growth: 0.781
- molecule: "Cc1cc(O)cc(=O)o1"
  normalized growth: 1
- molecule: "COC1=C[C@@H]2[C@@H]3Cc4ccc(OC)c(O)c4[C@]2(CCN3C)CC1=O"
  normalized growth: 0.996
- molecule: "O=C1c2c(O)cccc2Cc2cccc(O)c21"
  normalized growth: 1.01
- molecule: "C[C@@H]1CC[C@]2(C(=O)O)CC[C@]3(C)C(=CCC4[C@@]5(C)CC[C@H](O)C(C)(C)C5CC[C@]43C)C2[C@H]1C (stereo partly drawn)"
  normalized growth: 1.03
- molecule: "CC(C)=CCCC1(C)C=Cc2c(O)c3c(c(CC=C(C)C)c2O1)OC12C(=CC4CC1C(C)(C)OC2(C/C=C(/C)C(=O)O)C4=O)C3=O (stereo not drawn)"
  normalized growth: 0.808
- molecule: "COC(=O)/C(C)=C\\CC12OC(C)(C)C3CC(C=C4C(=O)c5c(O)c6c(c(CCC(C)(C)Cl)c5OC431)OC1(C)CCC(=C(C)C)C6C1)C2=O (stereo not drawn)"
  normalized growth: 1.01
- molecule: "CC1(C)CC[C@]2(C)CC[C@]3(C)C(=CCC4[C@@]5(C)CC[C@H](O)C(C)(C)C5CC[C@]43C)C2C1 (stereo partly drawn)"
  normalized growth: 1.01
- molecule: "C#C[C@]1(O)CCC2C3CCC4=C(CCC(=O)C4)C3CC[C@@]21C (stereo partly drawn)"
  normalized growth: 1.02
- molecule: "C#C[C@]1(OC(C)=O)CCC2C3CCC4=CC(=O)CC[C@@H]4C3CC[C@@]21C (stereo partly drawn)"
  normalized growth: 0.974
- molecule: "Cc1ccc(S(=O)(=O)NC(=O)NN2CC3CCCC3C2)cc1 (stereo not drawn)"
  normalized growth: 0.992
- molecule: "CC(C)=CCCC1(C)C=Cc2c(O)c3c(c(CC=C(C)C)c2O1)OC12C(=CC4CC1C(C)(C)OC2(C/C=C(/C)C(=O)O)C4O)C3=O (stereo not drawn)"
  normalized growth: 0.955
- molecule: "CCOP(=S)(OCC)Oc1cc(C)nc(C(C)C)n1"
  normalized growth: 0.977
- molecule: "CC1=CCC2C3(C)C1=CC(=O)OC3CC1C(C)(C)CC(O)C(O)C12C (stereo not drawn)"
  normalized growth: 1.01
- molecule: "COc1c(CC(=O)c2cc3c(cc2O)OC(C)(C)C(O)C3)ccc2c1C=CC(C)(C)O2 (stereo not drawn)"
  normalized growth: 0.997
- molecule: "C#C[C@]1(O)CCC2C3CCC4=CC(=O)CC[C@@H]4C3CC[C@@]21C (stereo partly drawn)"
  normalized growth: 1.01
- molecule: "Nc1ccc(S(=O)(=O)Nc2cnc3ccccc3n2)cc1"
  normalized growth: 0.989
- molecule: "CCCOc1ccccc1-c1nc2n[nH]nc2c(=O)[nH]1"
  normalized growth: 1
- molecule: "OC(CCN1CCCC1)(c1ccccc1)C1CCCCC1 (stereo not drawn)"
  normalized growth: 1
- molecule: "C[C@@H]1OC(O[C@H]2[C@H](OC(=O)[C@]34CCC(C)(C)CC3C3=CCC5[C@@]6(C)CC[C@H](OC7O[C@@H](C)[C@H](O[C@@H]8OC[C@@H](O)[C@H](O)[C@H]8O)[C@@H](O)[C@H]7O)C(C)(C)C6CC[C@@]5(C)[C@]3(C)CC4O)OC[C@H](O)[C@H]2O)[C@H](O)[C@H](O)[C@H]1O[C@@H]1O[C@H](CO)[C@@H](O)[C@H](O)[C@H]1O (stereo partly drawn)"
  normalized growth: 0.923
- molecule: "C[C@H]1[C@H](C)CC[C@]2(CO)CC[C@]3(C)C(=CCC4[C@@]5(C)CC[C@H](O)C(C)(C)C5CC[C@]43C)[C@H]12 (stereo partly drawn)"
  normalized growth: 1.02
- molecule: "CC(=O)NC(C(=O)O)C(C)(C)SN=O (stereo not drawn)"
  normalized growth: 0.998
- molecule: "C/C=C(/C)C(=O)O[C@H]1CC[C@@]2(C)[C@@H]3CC[C@H]4[C@]5(O)C[C@H](O)[C@@]6(O)[C@@H](CN7C[C@@H](C)CC[C@H]7[C@@]6(C)O)[C@]5(O)C[C@@]42O[C@]13O"
  normalized growth: 0.996
- molecule: "Nc1ccc(S(=O)(=O)Nc2ccnn2-c2ccccc2)cc1"
  normalized growth: 1.01
